Reported inhibition at 1 µM values for a set of molecules
target: human PHD2 (Homo sapiens (Human), UniProt Q9GZT9); experiment: Test 2: human PHD2 inhibitory activity, fluorescence polarization assay of HIF-1α peptide proline hydroxylation; type: biochemical; conditions: read-out: Percent inhibition (% at 1 μM)
Sequence (Q9GZT9 whole entry): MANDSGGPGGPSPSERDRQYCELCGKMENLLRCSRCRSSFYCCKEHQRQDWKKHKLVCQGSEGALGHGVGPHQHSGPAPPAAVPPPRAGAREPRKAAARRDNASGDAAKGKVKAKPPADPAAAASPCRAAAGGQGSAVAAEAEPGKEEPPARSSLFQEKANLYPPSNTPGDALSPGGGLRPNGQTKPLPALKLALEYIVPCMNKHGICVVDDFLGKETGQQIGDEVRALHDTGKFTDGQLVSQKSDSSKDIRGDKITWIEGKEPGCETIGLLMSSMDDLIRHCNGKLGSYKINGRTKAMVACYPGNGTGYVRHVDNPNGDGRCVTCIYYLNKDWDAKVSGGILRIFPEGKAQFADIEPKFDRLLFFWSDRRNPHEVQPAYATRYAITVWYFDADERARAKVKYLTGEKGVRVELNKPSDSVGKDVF
Counter-ions that a name gives are not always drawn.
Provide the reading as a plain figure in %.

CC1CN(Cc2ccc(OC(F)(F)F)cc2)C(=O)C(C(=O)NCC(=O)O)=C1O (stereo not drawn) [Ex. 1-3, sodium salt] : 78
Cc1ccc(-c2ccc(CN3CCC(O)=C(C(=O)NCC(=O)O)C3=O)cc2)nc1 [Ex. 2-5, sodium salt] : 97
CC1(C)CC(O)=C(C(=O)NCC(=O)O)C(=O)N1CC(=O)NCc1ccc(-c2ccccc2)cc1 [Ex. 10-1, sodium salt] : 34
O=C(O)CNC(=O)C1=C(O)CCN(Cc2ccc(C3CC3)cc2)C1=O [Ex. 3-2, sodium salt] : 90
Cc1ccc(-c2ccc(CN3CCC(O)=C(C(=O)NCC(=O)O)C3=O)cc2)cn1 [Ex. 2-4, sodium salt] : 88

Inquiry: Quick check: inhibition at 1 µM of C[C@H]1CC(O)=C(C(=O)NCC(=O)O)C(=O)N1Cc1ccc(OCC2CC2)cc1 [Ex. 6-2, sodium salt] ?
Reply text: 77

Inquiry: Look up inhibition at 1 µM for this molecule: O=C(O)CNC(=O)C1=C(O)CCN(Cc2ccc(C3CCCC3)cc2)C1=O [Ex. 3-1, sodium salt]
Reply text: 95

Inquiry: Dear colleague, I am looking for the recorded inhibition at 1 µM of the following molecule: O=C(O)CNC(=O)C1=C(O)CCN(Cc2ccc(C3=CCC(F)(F)CC3)cc2)C1=O [Ex. 1-467, sodium salt]
Reply text: 95

Inquiry: Dear colleague, I am looking for the recorded inhibition at 1 µM of the following molecule: Cc1cc(CN2CCC(O)=C(C(=O)NCC(=O)O)C2=O)ccc1OCC1CC1 [Ex. 1-468, sodium salt]
Reply text: 85

====

target: human PHD2 (Homo sapiens (Human), UniProt Q9GZT9); assay: Test 2: human PHD2 inhibitory activity, fluorescence polarization assay of HIF-1α peptide proline hydroxylation; format: biochemical; conditions: test compound's concentration 1 μM; Test 2, fluorescence polarization assay; read-out: Percent inhibition (% at 1 μM)
endpoint: inhibition at 1 µM

Solved entries:
Cc1csc(CN2CCC(O)=C(C(=O)NCC(=O)O)C2=O)n1 : 66%
CCCCCCCCCN1CCC(O)=C(C(=O)NCC(=O)O)C1=O : 85%
O=C(O)CNC(=O)C1=C(O)CCN(Cc2ccc(-c3ccc(Cl)c(Cl)c3)cc2)C1=O : 96%
COc1ccc(CN2CCC(O)=C(C(=O)NCC(=O)NO)C2=O)cc1 : 16%
COc1ccc(CN2C(=O)C(C(=O)NCC(=O)O)=C(O)CC2(C)C)cc1C : 48%
O=C(O)CNC(=O)C1=C(O)CCN(Cc2ccc(Oc3cccc(Cl)c3)nc2)C1=O : 103%
O=C(O)CNC(=O)C1=C(O)[C@@H]2CCCCC2N(Cc2ccc(-c3ccccc3)cc2)C1=O (some centres unmarked) : 78%
O=C(O)CNC(=O)C1=C(O)CCN(Cc2ccc(C(=O)NCCN3CCCC3=O)cc2)C1=O : 61%
CCc1ccc(Oc2ccc(CN3CCC(O)=C(C(=O)NCC(=O)O)C3=O)cn2)cc1 : 100%
O=C(O)CNC(=O)C1=C(O)CCN(Cc2ccc(-c3ccc(F)cc3)cc2F)C1=O : 98%

Inquiry: Given `CC1(C)C(O)=C(C(=O)NCC(=O)O)C(=O)N1Cc1ccc(Oc2ccc(C(F)(F)F)cn2)cc1` , state its recorded inhibition at 1 µM.
Reply text: 87%

Inquiry: Recorded inhibition at 1 µM for `O=C(O)CNC(=O)C1=C(O)CCN(C[C@@H]2CC[C@@H](c3ccccc3)C2)C1=O` , please?
Reply text: 90%

Inquiry: State the recorded inhibition at 1 µM for this entry: O=C(O)CNC(=O)C1=C(O)CC(CO)(CCl)N(Cc2ccc(-c3ccccc3)cc2)C1=O (centres unmarked)
Reply text: 80%

Inquiry: Tell me the measured inhibition at 1 µM of `CS(=O)(=O)c1ccc(CN2CCC(O)=C(C(=O)NCC(=O)O)C2=O)cc1` , please.
Reply text: 81%

Inquiry: Could you tell me which inhibition at 1 µM is on file for `NS(=O)(=O)c1ccc(-c2ccc(CN3CCC(O)=C(C(=O)NCC(=O)O)C3=O)cc2)cc1` ?
Reply text: 97%

Inquiry: Fill in the blank: the reported inhibition at 1 µM of `Cc1ccc(Oc2ccc(CN3CC4(CC4)C(O)=C(C(=O)NCC(=O)O)C3=O)cn2)cc1` is ____.
Reply text: 97%

Inquiry: Please give the measured inhibition at 1 µM for this compound: `O=C(O)CNC(=O)C1=C(O)C2(CCOCC2)CN(Cc2ccc(-c3ccccn3)cc2)C1=O`
Reply text: 84%
